- experimental-target: CMKLR1 (Homo sapiens)
- Construct: host or cells: CHO-K1 (PathHunter CMKLR1 β-Arrestin cells)
- assay-notes: β-arrestin recruitment assay (chemerin-dependent β-arrestin2 signaling)
- Type: cell-based
- run-parameters: Table 2 tertiary amines; CMKLR1-CHO-β-Arrestin cells, 20 nM chemerin; read-out: β-arrestin IC50 mean ± SEM (n)
measurement-kind: pIC50
When answering, recall that pIC50 equals minus log10 of the concentration in mol/L, and write that number alone.

// worked examples, pIC50 included
1. CCN(CC)CCC(=O)c1ccc2ccccc2c1 : 4.15
2. CCN(C)CCC(=O)c1ccc2ccccc2c1 : 4.40
3. COc1cccc(C(=O)CCN(C)C)c1 : 4.19
4. C[N+](C)(C)CCC(=O)c1cccc2ccccc12.[I-] : 5.31
5. CN(C)CCC(=O)c1ccc2ccccc2c1 : 4.73

Q) Report value only: pIC50, CMKLR1 (Homo sapiens), `CCCCN(C)CCC(=O)c1ccc2ccccc2c1`
A) 4.35

Q) Using CMKLR1 (Homo sapiens) as the test system, report measured pIC50 of `COc1ccc2ccccc2c1C(=O)CCN(C)C` .
A) 5.21

Q) // output pIC50; input `COc1cccc(OC)c1C(=O)CCN(C)C` ; system CMKLR1 (Homo sapiens)
A) 4.99

====

- experimental-target: CMKLR1 (Homo sapiens)
- Construct: host or cells: CHO-K1 (PathHunter CMKLR1 β-Arrestin cells)
- assay-notes: β-arrestin recruitment assay (chemerin-dependent β-arrestin2 signaling)
- Format: cell-based
measurement-kind: activity in β-arrestin2 assay (in words)

1. COc1ccccc1C(=O)CC[N+](C)(C)C.[I-] [Compound 26] : highly active
2. COc1ccc(C(=O)CC[N+](C)(C)C)cc1.[I-] [Compound 27] : highly active
3. COc1cccc(OC)c1C(=O)CC[N+](C)(C)C.[I-] [Compound 30] : highly active

====

- experimental-target: CYP3A4 (Homo sapiens)
- Construct: tissue Cyprotex/Evotec AG; host or cells: human liver microsomes
- Sequence (P08684 whole entry): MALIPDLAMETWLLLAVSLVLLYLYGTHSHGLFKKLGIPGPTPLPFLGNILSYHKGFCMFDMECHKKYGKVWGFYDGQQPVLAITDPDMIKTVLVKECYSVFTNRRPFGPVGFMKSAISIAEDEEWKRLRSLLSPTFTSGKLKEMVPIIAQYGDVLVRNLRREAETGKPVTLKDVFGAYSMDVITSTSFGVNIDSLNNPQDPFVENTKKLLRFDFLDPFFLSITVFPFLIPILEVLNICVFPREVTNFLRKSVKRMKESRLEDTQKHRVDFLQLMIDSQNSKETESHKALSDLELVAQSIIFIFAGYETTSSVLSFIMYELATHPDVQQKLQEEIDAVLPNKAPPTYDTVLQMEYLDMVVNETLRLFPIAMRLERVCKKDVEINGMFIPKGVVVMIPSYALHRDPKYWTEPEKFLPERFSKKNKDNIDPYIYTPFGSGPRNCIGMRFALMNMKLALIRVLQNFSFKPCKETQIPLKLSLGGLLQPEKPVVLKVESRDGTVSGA
- assay-notes: Cyp enzyme inhibition in human liver microsomes
- Format: in vitro ADME
- run-parameters: substrate testosterone
measurement-kind: IC50 (µM)
Numeric answer only, unit µM assumed.

Q) Tell me its IC50 given `C[N+](C)(C)CCC(=O)c1cccc2ccccc12.[I-]` as the entry.
A) 6.9

====

- experimental-target: CMKLR1 (Homo sapiens, UniProt Q99788)
- Construct: host or cells: CHO-K1 (PathHunter CMKLR1 β-Arrestin cells)
- Sequence (Q99788 1-373): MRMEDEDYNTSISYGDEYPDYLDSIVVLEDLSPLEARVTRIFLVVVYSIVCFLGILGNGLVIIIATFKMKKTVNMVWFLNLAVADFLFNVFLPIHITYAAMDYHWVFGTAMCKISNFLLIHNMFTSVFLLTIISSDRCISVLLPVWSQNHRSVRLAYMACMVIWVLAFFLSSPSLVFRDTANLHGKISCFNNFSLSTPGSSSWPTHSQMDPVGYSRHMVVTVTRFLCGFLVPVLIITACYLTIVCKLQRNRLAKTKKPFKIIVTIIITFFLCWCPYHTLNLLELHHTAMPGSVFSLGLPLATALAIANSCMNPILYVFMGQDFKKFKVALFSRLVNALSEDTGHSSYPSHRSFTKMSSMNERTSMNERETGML
- assay-notes: β-arrestin recruitment assay (chemerin-dependent β-arrestin2 signaling)
- Format: cell-based
- run-parameters: Table 3 quaternary ammonium salts; CMKLR1-CHO-β-Arrestin cells, 20 nM chemerin; read-out: β-arrestin IC50 mean ± SEM (n)
measurement-kind: pIC50
Conceptually, pIC50 converts a concentration in mol/L into minus its log10.

1) COc1ccc2ccccc2c1C(=O)CC[N+](C)(C)C [Compound 33] : 6.22

Now look at this entry.
Q) In one line, give reported pIC50 of the entry COc1ccc2cc(C(=O)CC[N+](C)(C)C)ccc2c1 [Compound 32] .
A) 5.82
